// provenance: ChEMBL document CHEMBL3044672

- System: SW-620
- method: Cytotoxicity against Homo sapiens (human) SW620 cells after 48 hr by sulforhodamine B assay
- Assay type: functional
- appliedConditions: SW-620, 48 h

| smi | GI50 (µM) |
| --- | --- |
| ClCc1ccc(Cn2cnc3c(Cl)nc(Cl)nc32)cc1 | 3.8 |
| ClCc1cccc(Cn2cnc3ncnc(Cl)c32)c1 | 15.1 |
| ClCc1ccc(Cn2cnc3nc(Cl)nc(Cl)c32)cc1 | 13.2 |
| Nc1nc(Cl)c2ncn(Cc3cccc(CCl)c3)c2n1 | 3.8 |
| ClCc1cccc(Cn2cnc3c(Cl)nc(Cl)nc32)c1 | 1.58 |

---

- Test system: Hs-578T
- method: Cytotoxicity against Homo sapiens (human) Hs 578T cells after 48 hr by sulforhodamine B assay
- Assay type: functional
observedProperty: log10 GI50 (log10 of the value in µM)

| smi | log10 GI50 |
| --- | --- |
| ClCc1ccccc1Cn1cnc2nc(Cl)nc(Cl)c21 | -0.17 |
| ClCc1ccccc1Cn1cnc2c(Cl)ncnc21 | 0.36 |
| ClCc1ccc(Cn2cnc3ncnc(Cl)c32)cc1 | 0.24 |
| ClCc1cccc(Cn2cnc3ncnc(Cl)c32)c1 | 1.26 |
| ClCc1cccc(Cn2cnc3c(Cl)ncnc32)c1 | 0.54 |
| ClCc1cccc(Cn2cnc3nc(Cl)nc(Cl)c32)c1 | 0.15 |
| ClCc1ccccc1Cn1cnc2ncnc(Cl)c21 | 0.36 |
| ClCc1ccc(Cn2cnc3nc(Cl)nc(Cl)c32)cc1 | 1.28 |
| ClCc1ccccc1Cn1cnc2c(Cl)nc(Cl)nc21 | 0.07 |
| ClCc1ccc(Cn2cnc3c(Cl)nc(Cl)nc32)cc1 | 0.33 |
| Nc1nc(Cl)c2ncn(Cc3cccc(CCl)c3)c2n1 | 1.06 |
| ClCc1ccc(Cn2cnc3c(Cl)ncnc32)cc1 | 1.01 |
| ClCc1cccc(Cn2cnc3c(Cl)nc(Cl)nc32)c1 | 0.30 |

---

- Tested on: MOLT-4
- method: Cytotoxicity against Homo sapiens (human) MOLT4 cells after 48 hr by sulforhodamine B assay
- Assay type: functional
- appliedConditions: MOLT-4, 48 h
Items are presented alongside their recorded TGI.
observedProperty: TGI

| smi | targetOfAssay | observedProperty | obsValue |
| --- | --- | --- | --- |
| Nc1nc(Cl)c2ncn(Cc3ccc(CCl)cc3)c2n1 | MOLT-4 | TGI | > 100 µM |
| Nc1nc(Cl)c2ncn(Cc3ccccc3CCl)c2n1 | MOLT-4 | TGI | > 100 µM |
| ClCc1ccc(Cn2cnc3c(Cl)nc(Cl)nc32)cc1 | MOLT-4 | TGI | 27.5 µM |
| ClCc1cccc(Cn2cnc3c(Cl)nc(Cl)nc32)c1 | MOLT-4 | TGI | > 100 µM |
| ClCc1ccccc1Cn1cnc2c(Cl)nc(Cl)nc21 | MOLT-4 | TGI | 0.63 µM |
| ClCc1ccccc1Cn1cnc2nc(Cl)nc(Cl)c21 | MOLT-4 | TGI | 3.23 µM |

---

- Test system: DU-145
- method: Cytotoxicity against Homo sapiens (human) DU145 cells after 48 hr by sulforhodamine B assay
- Format: functional
- appliedConditions: DU-145, 48 h

| smi | targetOfAssay | measurementUnits | GI50 |
| --- | --- | --- | --- |
| ClCc1ccc(Cn2cnc3c(Cl)ncnc32)cc1 | DU-145 | µM | 1.31 |
| ClCc1ccc(Cn2cnc3c(Cl)nc(Cl)nc32)cc1 | DU-145 | µM | 5.62 |
| ClCc1ccccc1Cn1cnc2ncnc(Cl)c21 | DU-145 | µM | 2.95 |
| ClCc1ccccc1Cn1cnc2c(Cl)ncnc21 | DU-145 | µM | 5.62 |

---

- Tested on: OVCAR-8
- method: Cytotoxicity against Homo sapiens (human) OVCAR8 cells after 48 hr by sulforhodamine B assay
- Format: functional
- appliedConditions: OVCAR-8, 48 h
Binned GI50; ranges: low band: < 2 µM; middle band: ≥ 2 µM and < 3 µM; high band: ≥ 3 µM

| smi | assignedClass |
| --- | --- |
| ClCc1cccc(Cn2cnc3c(Cl)ncnc32)c1 | high band |
| ClCc1ccccc1Cn1cnc2nc(Cl)nc(Cl)c21 | middle band |
| ClCc1ccc(Cn2cnc3ncnc(Cl)c32)cc1 | high band |
| ClCc1ccc(Cn2cnc3c(Cl)nc(Cl)nc32)cc1 | high band |
| ClCc1ccccc1Cn1cnc2c(Cl)ncnc21 | middle band |
| Nc1nc(Cl)c2ncn(Cc3cccc(CCl)c3)c2n1 | middle band |
| ClCc1ccccc1Cn1cnc2ncnc(Cl)c21 | middle band |
| ClCc1ccccc1Cn1cnc2c(Cl)nc(Cl)nc21 | low band |
| ClCc1cccc(Cn2cnc3c(Cl)nc(Cl)nc32)c1 | low band |
| ClCc1cccc(Cn2cnc3nc(Cl)nc(Cl)c32)c1 | high band |

---

- Test system: PC-3
- method: Cytotoxicity against Homo sapiens (human) PC3 cells after 48 hr by sulforhodamine B assay
- Type: functional
- appliedConditions: PC-3, 48 h
// boundary case: GI50 equal to 3000 nM maps to No; strictly smaller maps to Yes

| smi | assignedClass |
| --- | --- |
| ClCc1cccc(Cn2cnc3c(Cl)nc(Cl)nc32)c1 | Yes |
| ClCc1ccccc1Cn1cnc2ncnc(Cl)c21 | No |
| ClCc1cccc(Cn2cnc3ncnc(Cl)c32)c1 | Yes |
| ClCc1ccc(Cn2cnc3c(Cl)nc(Cl)nc32)cc1 | Yes |
| ClCc1ccc(Cn2cnc3nc(Cl)nc(Cl)c32)cc1 | No |
| ClCc1ccccc1Cn1cnc2nc(Cl)nc(Cl)c21 | Yes |
| ClCc1ccc(Cn2cnc3ncnc(Cl)c32)cc1 | Yes |
| ClCc1cccc(Cn2cnc3nc(Cl)nc(Cl)c32)c1 | Yes |
| ClCc1cccc(Cn2cnc3c(Cl)ncnc32)c1 | No |
| Nc1nc(Cl)c2ncn(Cc3cccc(CCl)c3)c2n1 | No |
| ClCc1ccccc1Cn1cnc2c(Cl)nc(Cl)nc21 | Yes |
| ClCc1ccc(Cn2cnc3c(Cl)ncnc32)cc1 | No |

---

Recorded log10 of TGI for the following compounds
- Test system: TK-10
- method: Cytotoxicity against Homo sapiens (human) TK10 cells after 48 hr by sulforhodamine B assay
- Type: functional
- appliedConditions: TK-10, 48 h
observedProperty: log10 of TGI (log10 of the value in µM)

| smi | targetOfAssay | log10 of TGI |
| --- | --- | --- |
| ClCc1cccc(Cn2cnc3nc(Cl)nc(Cl)c32)c1 | TK-10 | 1.48 |
| ClCc1ccccc1Cn1cnc2ncnc(Cl)c21 | TK-10 | 0.98 |
| ClCc1ccccc1Cn1cnc2c(Cl)nc(Cl)nc21 | TK-10 | 0.46 |
| ClCc1cccc(Cn2cnc3c(Cl)nc(Cl)nc32)c1 | TK-10 | 0.60 |
| ClCc1ccccc1Cn1cnc2nc(Cl)nc(Cl)c21 | TK-10 | 1.53 |
| ClCc1cccc(Cn2cnc3c(Cl)ncnc32)c1 | TK-10 | 1.21 |
| Nc1nc(Cl)c2ncn(Cc3ccc(CCl)cc3)c2n1 | TK-10 | 1.61 |
| ClCc1ccc(Cn2cnc3ncnc(Cl)c32)cc1 | TK-10 | 0.47 |

---

- Tested on: HCT-15
- method: Cytotoxicity against Homo sapiens (human) HCT15 cells after 48 hr by sulforhodamine B assay
- Format: functional
- appliedConditions: HCT-15, 48 h
observedProperty: TGI (µM)

| smi | obsValue |
| --- | --- |
| ClCc1cccc(Cn2cnc3nc(Cl)nc(Cl)c32)c1 | 2.13 |
| ClCc1ccc(Cn2cnc3c(Cl)ncnc32)cc1 | 12.6 |
| ClCc1cccc(Cn2cnc3c(Cl)nc(Cl)nc32)c1 | 6.91 |
| ClCc1ccc(Cn2cnc3c(Cl)nc(Cl)nc32)cc1 | 3.8 |
| ClCc1cccc(Cn2cnc3c(Cl)ncnc32)c1 | 4.67 |
| ClCc1ccc(Cn2cnc3nc(Cl)nc(Cl)c32)cc1 | 3.54 |
| ClCc1ccccc1Cn1cnc2nc(Cl)nc(Cl)c21 | 0.43 |
| Nc1nc(Cl)c2ncn(Cc3ccc(CCl)cc3)c2n1 | 19.9 |
| Nc1nc(Cl)c2ncn(Cc3ccccc3CCl)c2n1 | 7.41 |
| ClCc1ccccc1Cn1cnc2c(Cl)nc(Cl)nc21 | 1.2 |
| Nc1nc(Cl)c2ncn(Cc3cccc(CCl)c3)c2n1 | 6.76 |
| ClCc1ccccc1Cn1cnc2c(Cl)ncnc21 | 4.67 |
| ClCc1ccccc1Cn1cnc2ncnc(Cl)c21 | 2.88 |
| ClCc1cccc(Cn2cnc3ncnc(Cl)c32)c1 | 4.36 |

---

We begin with a simple list: items and their reported log10(GI50).
- System: SW-620
- method: Cytotoxicity against Homo sapiens (human) SW620 cells after 48 hr by sulforhodamine B assay
- Assay type: functional
- appliedConditions: SW-620, 48 h
observedProperty: log10(GI50) (log10 of the value in µM)

| smi | targetOfAssay | log10(GI50) |
| --- | --- | --- |
| ClCc1ccc(Cn2cnc3ncnc(Cl)c32)cc1 | SW-620 | 0.41 |
| ClCc1ccccc1Cn1cnc2ncnc(Cl)c21 | SW-620 | 0.35 |
| ClCc1ccccc1Cn1cnc2nc(Cl)nc(Cl)c21 | SW-620 | -0.59 |
| ClCc1ccccc1Cn1cnc2c(Cl)ncnc21 | SW-620 | 0.25 |
| ClCc1cccc(Cn2cnc3nc(Cl)nc(Cl)c32)c1 | SW-620 | -0.39 |
| ClCc1cccc(Cn2cnc3c(Cl)ncnc32)c1 | SW-620 | 0.33 |
| ClCc1ccccc1Cn1cnc2c(Cl)nc(Cl)nc21 | SW-620 | -0.82 |
